Where do these numbers come from? They come from ChEMBL document CHEMBL3085759.

Assign MIC to each entry below.
# Tested on: Nakaseomyces glabratus
# procedureSummary: Antimicrobial activity against Candida glabrata by Alamar blue method
# Assay type: functional, organism-based

Check out these entries, answers already filled in.
[I-].c1ccc(Oc2cc3ccccc3[n+](CCCCCC3CCCCC3)c2)cc1 | > 20 µg/mL
Cc1cc(C)c(CSc2cc3ccccc3[n+](CCCCCC3CCCCC3)c2)c(C)c1.[I-] | 5 µg/mL
Brc1cccc(CSc2cc3ccccc3[n+](CCCCCC3CCCCC3)c2)c1.[I-] | 2.5 µg/mL
N#Cc1cccc(CSc2cc3ccccc3[n+](CCCCCC3CCCCC3)c2)c1.[I-] | 10 µg/mL

Please give MIC, item by item, for the list that follows.
1. Clc1ccccc1CSc1cc2ccccc2[n+](CCCCCC2CCCCC2)c1.[I-]
2. COc1cccc(CSc2cc3ccccc3[n+](CCCCCC3CCCCC3)c2)c1.[I-]

10 µg/mL
20 µg/mL

Please give MIC, item by item, for the list that follows.
1. Fc1ccc(CSc2cc3ccccc3[n+](CCCCCC3CCCCC3)c2)cc1.[I-]
2. FC(F)(F)c1cccc(CSc2cc3ccccc3[n+](CCCCCC3CCCCC3)c2)c1.[I-]
3. Oc1ccc(CSc2cc3ccccc3[n+](CCCCCC3CCCCC3)c2)cc1.[I-]
4. Fc1cccc(CSc2cc3ccccc3[n+](CCCCCC3CCCCC3)c2)c1.[I-]
5. Clc1cc(Cl)cc(CSc2cc3ccccc3[n+](CCCCCC3CCCCC3)c2)c1.[I-]

["2.5 µg/mL", "5 µg/mL", "20 µg/mL", "5 µg/mL", "> 20 µg/mL"]

Please give MIC, item by item, for the list that follows.
1. FC(F)(F)c1ccc(CSc2cc3ccccc3[n+](CCCCCC3CCCCC3)c2)cc1.[I-]
2. Brc1ccc(CSc2cc3ccccc3[n+](CCCCCC3CCCCC3)c2)cc1.[I-]
3. Brc1ccccc1CSc1cc2ccccc2[n+](CCCCCC2CCCCC2)c1.[I-]
4. Ic1cc2ccccc2[n+](CCCCCC2CCCCC2)c1.[I-]

["5 µg/mL", "5 µg/mL", "10 µg/mL", "> 20 µg/mL"]

---

# procedureSummary: in vitro
# cond: monkey, Vero cells
# Description: Selectivity index, ratio of TC50 for african green monkey Vero cells to IC50 for Aspergillus fumigatus ATCC 204305
reportedProperty: selectivity ratio
Give bare numbers.

The molecule C[C@@H]1[C@H](O)[C@@H](C)/C=C/C=C/C=C/C=C/C=C/C=C/C=C/[C@H](O[C@@H]2O[C@H](C)[C@@H](O)[C@H](N)[C@@H]2O)C[C@@H]2O[C@](O)(C[C@@H](O)C[C@@H](O)[C@H](O)CC[C@@H](O)C[C@@H](O)CC(=O)O[C@H]1C)C[C@H](O)[C@H]2C(=O)O [AMPHOTERICIN B] showed selectivity ratio equal to 38

---

# System: Nakaseomyces glabratus
# procedureSummary: Antimicrobial activity against Candida glabrata by Alamar blue method
# Type: functional, organism-based
reportedProperty: MFC (µg/mL)
Give bare numbers, in µg/mL.

Check out these entries, answers already filled in.
COc1cccc(CSc2cc3ccccc3[n+](CCCCCC3CCCCC3)c2)c1.[I-] | 20
[I-].c1ccc(CSc2cc3ccccc3[n+](CCCCCC3CCCCC3)c2)cc1 | 5
Brc1ccc(CSc2cc3ccccc3[n+](CCCCCC3CCCCC3)c2)cc1.[I-] | 5
FC(F)(F)c1cccc(CSc2cc3ccccc3[n+](CCCCCC3CCCCC3)c2)c1.[I-] | 5
Brc1ccccc1CSc1cc2ccccc2[n+](CCCCCC2CCCCC2)c1.[I-] | 10

The compound FC(F)(F)c1ccc(CSc2cc3ccccc3[n+](CCCCCC3CCCCC3)c2)cc1.[I-] showed MFC equal to 5

---

# procedureSummary: Cytotoxicity against african green monkey Vero cells after 48 hrs by Neutral Red dye assay
# Type: cell-based
# cond: chlorocebus sabaeus, read-out: TC50
reportedProperty: CC50 at 48 h

Check out these entries, answers already filled in.
Clc1ccc(CSc2cc3ccccc3[n+](CCCCCC3CCCCC3)c2)cc1.[I-] | 1.3 µg/mL
Cc1ccc(CSc2cc3ccccc3[n+](CCCCCC3CCCCC3)c2)cc1.[I-] | 6.8 µg/mL
Cc1cccc(CSc2cc3ccccc3[n+](CCCCCC3CCCCC3)c2)c1.[I-] | 5 µg/mL

Next, consider the following compound.
The compound FC(F)(F)c1ccc(CSc2cc3ccccc3[n+](CCCCCC3CCCCC3)c2)cc1.[I-] showed CC50 at 48 h equal to 7.9 µg/mL

---

Assign log10 MFC to each entry below.
# Tested on: Aspergillus fumigatus
# procedureSummary: Antimicrobial activity against Aspergillus fumigatus ATCC 204305 by Alamar blue method
# Format: functional, organism-based
Log scale reminder: MFC in µg/mL, then log10 taken.

Oc1ccc(CSc2cc3ccccc3[n+](CCCCCC3CCCCC3)c2)cc1.[I-] | 1.30
Brc1cccc(CSc2cc3ccccc3[n+](CCCCCC3CCCCC3)c2)c1.[I-] | 1.00
[I-].c1ccc(CSc2cc3ccccc3[n+](CCCCCC3CCCCC3)c2)cc1 | 1.30
Fc1cccc(CSc2cc3ccccc3[n+](CCCCCC3CCCCC3)c2)c1.[I-] | 1.30
Cc1cc(C)c(CSc2cc3ccccc3[n+](CCCCCC3CCCCC3)c2)c(C)c1.[I-] | 0.70
[I-].c1ccc2cc(Sc3cc4ccccc4[n+](CCCCCC4CCCCC4)c3)ccc2c1 | 0.40
FC(F)(F)c1cccc(CSc2cc3ccccc3[n+](CCCCCC3CCCCC3)c2)c1.[I-] | 0.40
COc1ccc(CSc2cc3ccccc3[n+](CCCCCC3CCCCC3)c2)cc1.[I-] | 1.00

Please give log10 MFC, item by item, for the list that follows.
1. Clc1ccc(CSc2cc3ccccc3[n+](CCCCCC3CCCCC3)c2)cc1Cl.[I-]
2. Fc1ccc(CSc2cc3ccccc3[n+](CCCCCC3CCCCC3)c2)cc1.[I-]
3. C[C@@H]1[C@H](O)[C@@H](C)/C=C/C=C/C=C/C=C/C=C/C=C/C=C/[C@H](O[C@@H]2O[C@H](C)[C@@H](O)[C@H](N)[C@@H]2O)C[C@@H]2O[C@](O)(C[C@@H](O)C[C@@H](O)[C@H](O)CC[C@@H](O)C[C@@H](O)CC(=O)O[C@H]1C)C[C@H](O)[C@H]2C(=O)O

[0.70, 1.00, 0.70]

Please give log10 MFC, item by item, for the list that follows.
1. Clc1ccc(CSc2cc3ccccc3[n+](CCCCCC3CCCCC3)c2)cc1.[I-]
2. Cc1ccc(CSc2cc3ccccc3[n+](CCCCCC3CCCCC3)c2)cc1.[I-]

[0.11, 1.00]

---

# procedureSummary: Selectivity index, ratio of TC50 for african green monkey Vero cells to MIC for Aspergillus fumigatus ATCC 204305
# Format: toxicity, cell-based
# cond: read-out: Selectivity Index
reportedProperty: selectivity ratio

The molecule C[n+]1c2ccccc2cc2[n-]c3ccccc3c21 [CRYPTOLEPINE] showed selectivity ratio equal to < 0.13

---

# System: Candida albicans
# procedureSummary: Antimicrobial activity against Candida albicans ATCC 90028 by Alamar blue method
# Format: functional, organism-based
reportedProperty: MIC

Check out these entries, answers already filled in.
Ic1cc2ccccc2[n+](CCCCCC2CCCCC2)c1.[I-] | > 20 µg/mL
Fc1ccc(CSc2cc3ccccc3[n+](CCCCCC3CCCCC3)c2)cc1.[I-] | 5 µg/mL
Fc1ccccc1CSc1cc2ccccc2[n+](CCCCCC2CCCCC2)c1.[I-] | 5 µg/mL
N#Cc1ccc(CSc2cc3ccccc3[n+](CCCCCC3CCCCC3)c2)cc1.[I-] | 5 µg/mL
COc1cccc(CSc2cc3ccccc3[n+](CCCCCC3CCCCC3)c2)c1.[I-] | 10 µg/mL

Please give MIC, item by item, for the list that follows.
1. COc1ccc(CSc2cc3ccccc3[n+](CCCCCC3CCCCC3)c2)cc1.[I-]
2. Oc1ccc(CSc2cc3ccccc3[n+](CCCCCC3CCCCC3)c2)cc1.[I-]
3. Brc1cccc(CSc2cc3ccccc3[n+](CCCCCC3CCCCC3)c2)c1.[I-]
4. [I-].c1ccc(CCSc2cc3ccccc3[n+](CCCCCC3CCCCC3)c2)cc1
5. N#Cc1cccc(CSc2cc3ccccc3[n+](CCCCCC3CCCCC3)c2)c1.[I-]
6. FC(F)(F)c1ccccc1CSc1cc2ccccc2[n+](CCCCCC2CCCCC2)c1.[I-]

5 µg/mL
20 µg/mL
5 µg/mL
> 20 µg/mL
10 µg/mL
2.5 µg/mL

Please give MIC, item by item, for the list that follows.
1. [I-].c1ccc(CSc2cc3ccccc3[n+](CCCCCC3CCCCC3)c2)cc1
2. [I-].c1ccc2c(c1)cc(SC1CCCCC1)c[n+]2CCCCCC1CCCCC1
3. Clc1ccc(CSc2cc3ccccc3[n+](CCCCCC3CCCCC3)c2)cc1Cl.[I-]
4. N#Cc1ccccc1CSc1cc2ccccc2[n+](CCCCCC2CCCCC2)c1.[I-]
5. C[C@@H]1[C@H](O)[C@@H](C)/C=C/C=C/C=C/C=C/C=C/C=C/C=C/[C@H](O[C@@H]2O[C@H](C)[C@@H](O)[C@H](N)[C@@H]2O)C[C@@H]2O[C@](O)(C[C@@H](O)C[C@@H](O)[C@H](O)CC[C@@H](O)C[C@@H](O)CC(=O)O[C@H]1C)C[C@H](O)[C@H]2C(=O)O [AMPHOTERICIN B]
6. FC(F)(F)c1ccc(CSc2cc3ccccc3[n+](CCCCCC3CCCCC3)c2)cc1.[I-]
7. Clc1ccc(CSc2cc3ccccc3[n+](CCCCCC3CCCCC3)c2)cc1.[I-]

1: 5 µg/mL; 2: > 20 µg/mL; 3: 2.5 µg/mL; 4: 5 µg/mL; 5: 0.62 µg/mL; 6: 2.5 µg/mL; 7: 0.63 µg/mL
